Tested on: U251 CNS
Test: NCI tumour cell line growth inhibition, 48 h
endpoint: TGI (µM)
Field: numeric (µM). Do not append units.

Here's what some known entries look like.
molecule | endpoint | dataValue
CCCCC/C=C1/CC(CO)(COC(=O)CC(C(C)C)C(C)C)OC1=O (stereo unspecified) | TGI | 27.6
c1ccc2c(c1)c1c(n2CCOCCN2CCCCC2)CCCC1 | TGI | 32.7

Data request: For the molecule "CCN(CC)CCCCCCCCNc1c2ccc(Cl)cc2nc2ccc(OC)cc12" , what TGI is on record?
Data returned: 2.97

Data request: "CN(NC(=O)/C(=C/c1ccc(O)cc1)NC(=O)c1ccccc1)c1ccnc2cc(Cl)ccc12" , same question.
Data returned: 28.5

Data request: Also "c1ccc([CH2][Sn]([CH2]c2ccccc2)([S]c2cccc3cccnc23)[S]c2cccc3cccnc23)cc1" , if possible.
Data returned: 1.14

Data request: Next record, please: "COc1ccccc1/C=C1\COc2ccc(O)c(O)c2C1=O"
Data returned: 3.99

* * *

Measured TGI values are reported for all entries that follow.
Tested on: IGROV1 ovarian
Assay: NCI tumour cell line growth inhibition, 48 h

Consider the reported TGI for these compounds:
compound | TGI
O=C(CC(O)(c1ccccc1)c1ccc(Cl)cc1)NC(=O)c1ccccc1O (configuration not stated) | > 100 µM
O=C(CC1Sc2ccccc2NC1=O)Nc1cccc(Cl)c1 (configuration not stated) | > 100 µM
C/C(O)=C/c1nc2ccccc2nc1/C=C(/C)O | 54.7 µM

Data request: Param item = CC(=O)NC1(C)CCC(C(C)(C)NC(C)=O)CC1 (configuration not stated) ; retrieve measured TGI.
Data returned: > 100 µM

Data request: Would you mind doing CCOC(=O)C1=CN=C2C(=O)N(c3ccccc3)N(C)C2(C)C1=N (configuration not stated) as well?
Data returned: > 100 µM

Data request: And then "Oc1nc(N/N=C/c2c[nH]c3ccccc23)[nH]c1/C=C1\C=Nc2ccccc21" , what is it?
Data returned: 41.2 µM

* * *

System: HL-60(TB) leukemia
Test: NCI tumour cell line growth inhibition, 48 h
endpoint: GI50

compound | target | GI50
COc1cc(-c2cc(-c3ccc(N(C)C)cc3)nc(N3CCC(O)CC3)c2C#N)cc(OC)c1OC | HL-60(TB) leukemia | 574 nM
COc1ccc(C(=O)/C=C/c2ccc(Cl)cc2)cc1S(N)(=O)=O | HL-60(TB) leukemia | 3080 nM
Cc1ncc(C(=O)Nc2ccc(CN3CCN(C)CC3)c(C(F)(F)F)c2)cc1C#Cc1c(N)ncc2ccc(C#N)cc12 | HL-60(TB) leukemia | 9240 nM

Read the next record carefully.
Data request: State the recorded GI50 for this entry: Cc1cc(O)c2c(c1)C[C@@H](O)C1=C2C(=O)c2c(O)ccc(OC3CC(O)C(OC4CC(OC5CCC(OC6CC(O)C(OC7CC(OC8CCC(O)C(C)O8)C(O)C(C)O7)C(C)O6)C(C)O5)C(O)C(C)O4)C(C)O3)c2C1=O (some centres undefined)
Data returned: 112 nM

* * *

System: ACHN renal
Experiment: NCI tumour cell line growth inhibition, 48 h
Reported TGI values follow for various molecules

molecule | dataValue
NNC(=O)CC(=O)Nc1ccc(Cl)cc1 | > 100 µM

Data request: API: value(readout=TGI, system=ACHN renal) for record "Oc1nc(N/N=C/c2c[nH]c3ccccc23)[nH]c1/C=C1\C=Nc2ccccc21"
Data returned: 49.1 µM

Data request: Here is the next molecule: "CC[C@]1(O)C[C@@H]2CN(Cc3c([nH]c4ccccc34)[C@@](C(=O)OC)(c3cc4c(cc3OC)N(C)[C@H]3[C@@](O)(C(=O)OC)[C@H](OC(C)=O)[C@]5(CC)[C@@H]6C[C@@H]6CN6CC[C@]43[C@@H]65)C2)C1"
Data returned: > 4.38 µM

Data request: Another: Cc1cn(C2CC(O)C(CO)C2C)c(=O)[nH]c1=O (stereo not drawn)
Data returned: > 100 µM

Data request: Thanks! And "COC(=O)c1c(OC(C)=O)ccc2c1c1c(OC(C)=O)c3ccccc3c(OC(C)=O)c1n2Cc1cc(OC)cc(OC)c1" ?
Data returned: > 100 µM

* * *

TGI values by entry
System: MOLT-4 leukemia
Assay: NCI tumour cell line growth inhibition, 48 h

compound | dataValue
COc1cc(/C=C2\C[C@H]3[C@@H]4CC=C5C[C@@H](N6CCCC6)CC[C@]5(C)[C@H]4CC[C@]3(C)[C@H]2O)cc(OC)c1OC | > 56.2 µM
[O-][n+]1onc2c3nn(-c4ccccc4)nc3ccc21 | > 100 µM
COCCNC(=O)C1C(=O)N(CCOC)C(=O)/C1=N/N (stereo not given) | > 100 µM

Data request: TGI for "Cc1cc(Cl)n2c(nc3ccccc32)c1C#N" ?
Data returned: 22.8 µM

Data request: Now this one: COc1ccc(C2SC(N)=Nc3c2c(C)nn3C(=O)c2ccncc2)cc1 (stereo not given)
Data returned: > 100 µM

Data request: Entry "CC(C)(O)Cn1c(=O)c(Oc2ccc(F)cc2F)cc2cnc(NC3CCOCC3)nc21" please
Data returned: > 25 µM

Data request: Thanks! And "CC(C)OC(=O)c1ccc(NCC2=CC(=O)C=CC2=O)cc1Cl" ?
Data returned: > 30.7 µM

* * *

Test system: MDA-N
Test: NCI tumour cell line growth inhibition, 48 h
endpoint: TGI (µM)
Value expressed in µM; do not type the unit.

Observe how each entry below is paired with its result.
molecule | readingUnit | dataValue
COC(c1ccsc1)C(C#N)(C#N)N=Cc1ccsc1 (stereo unspecified) | µM | 33.4
COc1c(O)c2ccccc2c2cc(O)ccc12 | µM | 2.57
O=C(Nc1nc2ncn(CCOC(=O)c3ccccc3)c2c(=O)[nH]1)c1ccccc1 | µM | 7.89

Data request: What value of TGI has been reported for the following molecule? "O=c1c(Cl)nsnc1Cl"
Data returned: 36.9

Data request: Thanks! And O=[N+]([O-])c1ccc2c(c1)nc(Cc1ccccc1)n2C[C@@H]1CCCN2CCCCC12 (stereo partly specified) ?
Data returned: 38.6

* * *

System: SK-MEL-5 melanoma
Assay: NCI tumour cell line growth inhibition, 48 h
endpoint: TGI (µM)
Report as a plain number; the unit µM is understood.

smilesCode | endpoint | dataValue
CC[C@]1(O)C[C@@H]2CN(Cc3c([nH]c4ccccc34)[C@@](C(=O)OC)(c3cc4c(cc3OC)N(C)[C@H]3[C@@](O)(C(=O)OC)[C@H](OC(C)=O)[C@]5(CC)[C@@H]6C[C@@H]6CN6CC[C@]43[C@@H]65)C2)C1 | TGI | 1.85

Switching to the query record.
Data request: Given "COc1cc(/C=C2\C[C@H]3[C@@H]4CC=C5C[C@@H](N6CCCC6)CC[C@]5(C)[C@H]4CC[C@]3(C)[C@H]2O)cc(OC)c1OC" , state its recorded TGI.
Data returned: 30

* * *

Tested on: SK-MEL-28 melanoma
Assay: NCI tumour cell line growth inhibition, 48 h
endpoint: TGI

Recorded TGI, per entry:
molecule | TGI
COC(=O)C1=CC(=O)C(C(=O)Nc2ccc(OC)cc2)C(c2ccccc2)O1 (stereo unspecified) | > 86.3 µM
CC1(C)O[C@H](C(=O)O)[C@@H](C(=O)O)O1 | > 100 µM
CO/C(=N\N=C\c1ccc(Cl)cc1)c1ccncc1 | > 100 µM
CC1(C)C2CCC1(CS(=O)(=O)Nc1ccccc1)C(=O)C2 (stereo unspecified) | > 100 µM
Cc1c(C(=O)/C=C/c2ccco2)[n+](=O)c2ccccc2n1[O-] | > 100 µM
COc1ccc([C@H]2c3cc(OC)c(OC)cc3C=C(C=O)C2CO)cc1OC (stereo partly specified) | > 100 µM

Data request: Give recorded TGI with SK-MEL-28 melanoma for the following molecule: "Oc1ccc2c(c1)-c1c(c3cc(O)ccc3n1CCN1CCOCC1)CC2"
Data returned: 61.9 µM

Data request: Same lookup for "C1=C[C@@H]2c3ccc4cnccc4c3NC[C@@H]2C1" , please.
Data returned: > 100 µM

Data request: Also check "CN(C)C1(C#N)CCC2(CC1)OCCO2"
Data returned: > 100 µM

Data request: Please do the same for "O=C(Nc1ccccc1)c1cc2c(cc1Cl)Sc1nccn1S2(=O)=O" as well.
Data returned: 46.9 µM

Data request: Request: "CC(=O)Oc1c(-c2ccccc2)[nH]c2cc([N+](=O)[O-])c(/C(Cl)=C/c3ccccc3)cc12"
Data returned: 25.2 µM

* * *

Tested on: ACHN renal
Experiment: NCI tumour cell line growth inhibition, 48 h
endpoint: TGI (µM)
Form entry: value (µM) — number only.

// worked examples, TGI included
compound | readingUnit | TGI
CSC1=Nc2ccccc2-c2nc(-c3ccccc3)cc(-c3ccccc3)c2C1 | µM | 41.8
COC(c1ccsc1)C(C#N)(C#N)N=Cc1ccsc1 (stereo unspecified) | µM | 54.6
COc1ccccc1/C=C1\COc2ccc(O)c(O)c2C1=O | µM | 2.64
COC(=O)C1=C(C)N2CCCOC2(C)C(C(=O)OC)C1c1cccc(Cl)c1 (stereo unspecified) | µM | 93.3

# ---- query compound ----
Data request: Form field: TGI recorded for "Cc1ccc(CCC(=O)Nc2ncc(Cc3cc(Cl)ccc3Cl)s2)o1" with ACHN renal (enter value)
Data returned: 4.85
